# testTarget: VIM-2 (Escherichia coli)
# testSummary: MBL inhibition, FC-5 fluorescence assay, VIM-2
# Format: biochemical
# protocolConditions: FC-5 cephalosporin substrate, ranges of obtained pIC50, read-out: pIC50 VIM-2 (converted)
# Method: Inhibitors were tested using a panel of the clinically relevant B1 MBLs (NDM-1, VIM-1, -2 and IMP-1). […] FC-5 assays were conducted in clear bottomed 384 black well microplates (Greiner); the initial rate of reaction was assessed by monitoring the fluorescence intensity (λex=380 nm and λem=460 nm) using a Pherstar FS (BMG LabTech) plate reader. Initial rates of reaction were determined and dose-response analyses conducted in GraphPad Prism. […]
reportedEndpoint: IC50

These recorded examples may help you get a feel for the data.
Please fill in: IC50 reported for C=C(CC(=O)NCCc1c[nH]cn1)c1cccc2c(-c3ccc(CS(C)(=O)=O)c(F)c3)c(C(=O)O)[nH]c12 [IC-106] = > 10 nM

Please fill in: IC50 reported for CC(OC(=O)N1CCC(CN)CC1)c1cccc2c(-c3ccc(CS(C)(=O)=O)c(F)c3)c(C(=O)O)[nH]c12 (centres unmarked) [IC-95] = 1 to 10 nM

Please fill in: IC50 reported for CC(Oc1ccc(CN)cc1)c1cccc2c(-c3ccc(CS(C)(=O)=O)c(F)c3)c(C(=O)O)[nH]c12 (centres unmarked) [IC-92] = 1 to 10 nM

Please fill in: IC50 reported for CC(NC(=O)C[C@H]1CC[C@H](N)CC1)c1cccc2c(-c3ccc(CS(C)(=O)=O)c(F)c3)c(C(=O)O)[nH]c12 (mixture of isomers) [IC-100] = 0.1 to 1 nM

Please fill in: IC50 reported for C[C@@H](c1cccc2c(-c3cncc(O)c3)c(C(=O)O)[nH]c12)N1C[C@]2(C[C@@H](CN)C2)OC1=O [IC-23] = 0.1 to 1 nM

Please fill in: IC50 reported for C[C@H](OCc1ccc(CN)cc1)c1cccc2c(-c3ccc(CS(C)(=O)=O)c(Cl)c3)c(C(=O)O)[nH]c12 (single isomer, unassigned) [IC-87] = 0.1 to 1 nM

Please fill in: IC50 reported for CC(c1cccc2c(-c3ccc(CS(C)(=O)=O)c(F)c3)c(C(=O)O)[nH]c12)n1cc(CCCN(C)C)oc1=O (centres unmarked) [IC-75] = 1 to 10 nM

Please fill in: IC50 reported for CC(c1cnn(C)c1)c1cccc2c(-c3ccc(CS(C)(=O)=O)c(F)c3)c(C(=O)O)[nH]c12 (centres unmarked) [IC-3] = 1 to 10 nM

Please fill in: IC50 reported for CC(c1cccc2c(-c3ccc(CS(C)(=O)=O)c(F)c3)c(C(=O)O)[nH]c12)N(C)C(=O)c1ccc(CN)cc1 (centres unmarked) [IC-97] = 1 to 10 nM

Please fill in: IC50 reported for CC(c1cnc(Cl)s1)c1cccc2c(-c3ccc(CS(C)(=O)=O)c(F)c3)c(C(=O)O)[nH]c12 (centres unmarked) [IC-7] = 1 to 10 nM

---
Please fill in: IC50 reported for CC(OCc1ccc(CN)cc1)c1cccc2c(-c3ccc(NS(C)(=O)=O)c(C#N)c3)c(C(=O)O)[nH]c12 (centres unmarked) [IC-86] = 1 to 10 nM

Please fill in: IC50 reported for C[C@@H](c1cccc2c(-c3ccc(CS(C)(=O)=O)c(F)c3)c(C(=O)O)[nH]c12)n1cc(CN2CC(C)(N)C2)oc1=O [IC-68] = 0.1 to 1 nM

Please fill in: IC50 reported for C[C@@H](c1cccc2c(-c3c(F)cc(NS(C)(=O)=O)cc3F)c(C(=O)O)[nH]c12)N1C[C@]2(C[C@@H](CN)C2)OC1=O [IC-21] = 1 to 10 nM

Please fill in: IC50 reported for C[C@@H](c1cccc2c(-c3ccc(CS(C)(=O)=O)c(F)c3)c(C(=O)O)[nH]c12)N1CC2(CNC2)OC1=O [IC-65] = 0.1 to 1 nM

* * *

# testTarget: VIM-2 (Escherichia coli, UniProt Q5U7L7)
# testSummary: MBL inhibition, FC-5 fluorescence assay, VIM-2
# Type: biochemical
# protocolConditions: FC-5 cephalosporin substrate, ranges of obtained pIC50, read-out: pIC50 VIM-2 (converted)
reportedEndpoint: IC50

These recorded examples may help you get a feel for the data.
Please fill in: IC50 reported for C[C@@H](c1cccc2c(-c3ccc(CS(C)(=O)=O)c(F)c3)c(C(=O)O)[nH]c12)N1C[C@]2(C[C@H](CN)C2)OC1=O = < 0.1 nM

Please fill in: IC50 reported for CC(c1nn[nH]n1)c1cccc2c(-c3ccc(CS(C)(=O)=O)c(F)c3)c(C(=O)O)[nH]c12 (stereo not shown) = > 10 nM

Please fill in: IC50 reported for C[C@@H](c1cccc2c(-c3ccc(CS(C)(=O)=O)c(F)c3)c(C(=O)O)[nH]c12)n1cc(CN2CC(N)C2)oc1=O = 0.1 to 1 nM

Please fill in: IC50 reported for C/C(=C\C(=O)NCCc1c[nH]cn1)c1cccc2c(-c3ccc(CS(C)(=O)=O)c(F)c3)c(C(=O)O)[nH]c12 = > 10 nM

---
Please fill in: IC50 reported for CC(c1cccc2c(-c3ccc(CS(C)(=O)=O)c(F)c3)c(C(=O)O)[nH]c12)N1CC(CCCN)OC1=O (single isomer, unassigned) [IC-84] = 0.1 to 1 nM

Please fill in: IC50 reported for CC(NC(=O)c1ccc(CN)cc1)c1cccc2c(-c3ccc(CN4CCOCC4)nc3)c(C(=O)O)[nH]c12 (stereo not shown) = 1 to 10 nM

* * *

Measured IC50 values are reported for all entries that follow.
# testTarget: VIM-1 (Pseudomonas aeruginosa, UniProt A0A0F7KYQ8)
# testSummary: MBL inhibition, FC-5 fluorescence assay, VIM-1
# Type: biochemical
# protocolConditions: FC-5 cephalosporin substrate, ranges of obtained pIC50, read-out: pIC50 VIM-1 (converted)

These recorded examples may help you get a feel for the data.
Please fill in: IC50 reported for CC(OCC1CCNCC1)c1cccc2c(-c3ccc(CS(C)(=O)=O)c(F)c3)c(C(=O)O)[nH]c12 (stereo not shown) = 0.001 to 0.01 µM

Please fill in: IC50 reported for CC(OCc1cnn[nH]1)c1cccc2c(-c3ccc(CS(C)(=O)=O)c(F)c3)c(C(=O)O)[nH]c12 (stereo not shown) = > 0.01 µM

Please fill in: IC50 reported for CC(c1cccc2c(-c3ccc(CS(C)(=O)=O)c(F)c3)c(C(=O)O)[nH]c12)N1C(=O)CN(CCCN)C1=O (stereo not shown) = 0.001 to 0.01 µM

Please fill in: IC50 reported for COc1cc(-c2c(C(=O)O)[nH]c3c([C@H](C)N4C[C@]5(C[C@@H](CN)C5)OC4=O)cccc23)cnc1O = > 0.01 µM

---
Please fill in: IC50 reported for CNc1ccc(-c2c(C(=O)O)[nH]c3c([C@H](C)N4C[C@]5(C[C@@H](CN)C5)OC4=O)cccc23)cn1 = > 0.01 µM

Please fill in: IC50 reported for C[C@@H](c1cccc2c(-c3ccc(CS(C)(=O)=O)c(F)c3)c(C(=O)O)[nH]c12)N1C[C@]2(C[C@@H](CN)C2)OC1=O = 0.0001 to 0.001 µM

Please fill in: IC50 reported for C/C(=C\C(=O)N1CCOCC1)c1cccc2c(-c3ccc(CS(C)(=O)=O)c(F)c3)c(C(=O)O)[nH]c12 = > 0.01 µM

* * *

# testSummary: Metabolic stability in mouse hepatocytes
# Format: in vitro ADME
# protocolConditions: cryopreserved mouse hepatocytes, 1 μM compound, 37° C., up to 90 min, read-out: Metabolic stability in hepatocytes, in vitro t1/2, Mouse
reportedEndpoint: half-life at 1 μM

These recorded examples may help you get a feel for the data.
Please fill in: half-life at 1 μM reported for C[C@@H](c1cccc2c(-c3ccc(CS(C)(=O)=O)c(F)c3)c(C(=O)O)[nH]c12)n1cc(CCC2(N)CC2)oc1=O = < 2.5 h

Please fill in: half-life at 1 μM reported for C[C@@H](c1cccc2c(-c3ccc(CS(C)(=O)=O)c(F)c3)c(C(=O)O)[nH]c12)N1CC2(CN(C(=N)N)C2)OC1=O = > 6.67 h

# ---- query compound ----
Please fill in: half-life at 1 μM reported for C[C@@H](c1cccc2c(-c3ccc(CS(C)(=O)=O)c(F)c3)c(C(=O)O)[nH]c12)n1cc(CN2CC(C)(N)C2)oc1=O = > 6.67 h

* * *

# testSummary: Plasma protein binding, equilibrium dialysis, mouse plasma
# Format: in vitro ADME
# protocolConditions: pH 7.4, equilibrium dialysis (RED) 4 hours at 37° C., read-out: Plasma protein binding, fu, Mouse
Measured fraction unbound at 4 h, 10 μM values are reported for all entries that follow.

These recorded examples may help you get a feel for the data.
Please fill in: fraction unbound at 4 h, 10 μM reported for C[C@@H](c1cccc2c(-c3ccc(CS(C)(=O)=O)c(F)c3)c(C(=O)O)[nH]c12)N1C[C@]2(C[C@@H](CN)C2)OC1=O = 0.05 to 0.25

Please fill in: fraction unbound at 4 h, 10 μM reported for CC(c1cccc2c(-c3ccc(CS(C)(=O)=O)c(F)c3)c(C(=O)O)[nH]c12)N1C(=O)CN(CCCN)C1=O (stereo not shown) = 0.005 to 0.05

Please fill in: fraction unbound at 4 h, 10 μM reported for CC(OCC1CC[N+](C)(C)CC1)c1cccc2c(-c3ccc(CS(C)(=O)=O)c(F)c3)c(C(=O)[O-])[nH]c12 (stereo not shown) = 0.05 to 0.25

# ---- query compound ----
Please fill in: fraction unbound at 4 h, 10 μM reported for C[C@@H](c1cccc2c(-c3c(F)cc(NS(C)(=O)=O)cc3F)c(C(=O)O)[nH]c12)N1C[C@]2(C[C@@H](CN)C2)OC1=O = 0.005 to 0.05
